// provenance: patent US20210188980A1

molecular target: T1, human PD-1 expressed on cells (human, UniProt Q15116 25-288); assay: cell RBA FACS, CHO-K1-huPD1; competitor biotin-PD-L2/Fc
T1 construct: whole, on cells; also called CHO-K1/huPD-1; CHO-K1-hPD-1 cells
T1 sequence (Q15116 25-288): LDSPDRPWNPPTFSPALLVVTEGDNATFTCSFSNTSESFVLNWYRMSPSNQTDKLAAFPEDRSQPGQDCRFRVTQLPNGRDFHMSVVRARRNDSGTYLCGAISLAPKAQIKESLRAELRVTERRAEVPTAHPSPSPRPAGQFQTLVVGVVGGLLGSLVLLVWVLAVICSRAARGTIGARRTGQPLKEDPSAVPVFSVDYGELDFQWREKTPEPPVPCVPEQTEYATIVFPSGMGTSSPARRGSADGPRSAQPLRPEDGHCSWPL
For each entry below, report its pIC50 value.
Friendly reminder that pIC50 comes from taking -log10 of the concentration in mol/L.

I would be grateful if you could share the reported pIC50 for mAb709c (antibody, V domains shown, also called HumAb709c) VH: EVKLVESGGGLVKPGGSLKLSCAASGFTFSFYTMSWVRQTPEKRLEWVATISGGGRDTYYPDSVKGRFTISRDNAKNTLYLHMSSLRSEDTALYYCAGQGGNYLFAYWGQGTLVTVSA VL: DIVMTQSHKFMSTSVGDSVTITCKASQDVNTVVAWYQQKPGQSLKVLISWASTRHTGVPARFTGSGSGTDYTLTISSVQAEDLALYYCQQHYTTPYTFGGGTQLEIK .
9.25

I would be grateful if you could share the reported pIC50 for HumAb709-8 (antibody, human IgG1, kappa, L234A L235A, V domains shown, humanized mAb709; also called HurnAb709-8) VH: EVQLVESGGGLVQPGGSLRLSCAASGFTFSFYTMSWVRQAPGKGLEWVATISGGGRDTYYPDSVKGRFTISRDNAKNSLYLQMNSLRAEDTAVYYCAGQGGNYLFAYWGQGTLVTVSS VL: DIVMTQSPSSLSASVGDRVTITCKASQDVNTVVAWYQQKPGKAPKVLISWASTRHTGVPSRFSGSGSGTDYTLTISSLQPEDFATYYCQQHYTTPYTFGGGTKVEIKR .
9.00

I would be grateful if you could share the reported pIC50 for HumAb709-14 (antibody, human IgG1, kappa, L234A L235A, V domains shown, humanized mAb709) VH: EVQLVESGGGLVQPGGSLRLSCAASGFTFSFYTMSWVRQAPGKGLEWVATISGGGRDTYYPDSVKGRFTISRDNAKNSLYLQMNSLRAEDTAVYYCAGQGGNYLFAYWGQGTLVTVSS VL: DIVMTQSPSSLSASVGDRVTITCKASQDVNTVVAWYQQKPGKSLKVLISWASTRHTGVPSRFTGSGSGTDYTLTISSLQPEDFATYYCQQHYTTPYTFGGGTKVEIKR .
9.04

I would be grateful if you could share the reported pIC50 for HumAb709-6 (antibody, human IgG1, kappa, L234A L235A, V domains shown, humanized mAb709) VH: EVQLVESGGGLVQPGGSLRLSCAASGFTFSFYTMSWVRQAPGKRLEWVATISGGGRDTYYPDSVKGRFTISRDNAKNSLYLQMNSLRAEDTAVYYCAGQGGNYLFAYWGQGTLVTVSS VL: DIQMTQSPSSLSASVGDRVTITCKASQDVNTVVAWYQQKPGKAPKLLISWASTRHTGVPSRFSGSGSGTDYTLTISSLQPEDFATYYCQQHYTTPYTFGGGTKVEIKR .
8.90

I would be grateful if you could share the reported pIC50 for HumAb709-10 (antibody, human IgG1, kappa, L234A L235A, V domains shown, humanized mAb709) VH: EVQLVESGGGLVQPGGSLRLSCAASGFTFSFYTMSWVRQAPGKGLEWVATISGGGRDTYYPDSVKGRFTISRDNAKNSLYLQMNSLRAEDTAVYYCARQGGNYLFAYWGQGTLVTVSS VL: DIVMTQSPSSLSASVGDRVTITCKASQDVNTVVAWYQQKPGKAPKVLISWASTRHTGVPSRFTGSGSGTDYTLTISSLQPEDFATYYCQQHYTTPYTFGGGTKVEIKR .
9.10

I would be grateful if you could share the reported pIC50 for HumAb709-2 (antibody, human IgG1, kappa, L234A L235A, V domains shown, humanized mAb709) VH: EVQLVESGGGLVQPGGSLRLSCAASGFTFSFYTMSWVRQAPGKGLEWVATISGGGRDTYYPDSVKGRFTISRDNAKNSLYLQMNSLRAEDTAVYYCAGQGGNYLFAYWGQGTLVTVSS VL: DIQMTQSPSSLSASVGDRVTITCKASQDVNTVVAWYQQKPGKAPKLLIYWASTRHTGVPSRFSGSGSGTDYTLTISSLQPEDFATYYCQQHYTTPYTFGGGTKVEIKR .
9.00

I would be grateful if you could share the reported pIC50 for HumAb709-5 (antibody, human IgG1, kappa, L234A L235A, V domains shown, humanized mAb709) VH: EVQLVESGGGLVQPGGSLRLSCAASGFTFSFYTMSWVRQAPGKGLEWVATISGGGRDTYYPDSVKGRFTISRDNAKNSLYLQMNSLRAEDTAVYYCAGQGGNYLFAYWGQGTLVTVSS VL: DIQMTQSPSSLSASVGDRVTITCKASQDVNTVVAWYQQKPGKAPKLLISWASTRHTGVPSRFSGSGSGTDYTLTISSLQPEDFATYYCQQHYTTPYTFGGGTKVEIKR .
9.01
